- Test summary: Single ascending dose and food-effect pharmacokinetics of naringin tablets in healthy humans
- Assay type: in vivo, human
- Run parameters: both sexes, human, plasma, po, 40 mg, naringin 40 mg p.o. single dose, human; read-out: MRT0-t
Value kind: MRT last

Task: Entry under review: C[C@@H]1O[C@@H](O[C@H]2[C@H](Oc3cc(O)c4c(c3)O[C@H](c3ccc(O)cc3)CC4=O)O[C@H](CO)[C@@H](O)[C@@H]2O)[C@H](O)[C@H](O)[C@H]1O . Reported MRT last?
Output: 2.66 h

====

- Test summary: Single-dose pharmacokinetics in rats (plasma, UHPLC/MS/MS)
- Assay type: in vivo, Sprague Dawley rats
- Run parameters: male, Sprague Dawley, rat, plasma, po, 168 mg/kg; read-out: Cmax
Value kind: Cmax (ng/mL)
Give bare numbers, in ng/mL.

Task: Cmax for C[C@@H]1O[C@@H](O[C@H]2[C@H](Oc3cc(O)c4c(c3)O[C@H](c3ccc(O)cc3)CC4=O)O[C@H](CO)[C@@H](O)[C@@H]2O)[C@H](O)[C@H](O)[C@H]1O ?
Output: 113

====

Please respond with reported half-life for every item in the list.
- Test summary: Single-dose pharmacokinetics in rats (plasma, UHPLC/MS/MS)
- Type: in vivo, Sprague Dawley rats
- Run parameters: female, Sprague Dawley, rat, plasma, iv, 42 mg/kg
Give bare numbers, in h.

| Molecule | Unit descriptor | half-life |
| --- | --- | --- |
| O=C1C[C@@H](c2ccc(O)cc2)Oc2cc(O)cc(O)c21 | h | 2.91 |

Here is another compound to look at.
Task: Recorded half-life for C[C@@H]1O[C@@H](O[C@H]2[C@H](Oc3cc(O)c4c(c3)O[C@H](c3ccc(O)cc3)CC4=O)O[C@H](CO)[C@@H](O)[C@@H]2O)[C@H](O)[C@H](O)[C@H]1O , please?
Output: 1.6

====

- Test summary: Single ascending dose and food-effect pharmacokinetics of naringin tablets in healthy humans
- Type: in vivo, human
- Run parameters: both sexes, human, plasma, po, 320 mg, naringin 320 mg p.o. single dose
Value kind: AUC(0-t) (ng·h/mL)
Answers are plain numbers, in ng·h/mL.

Task: Tell me the measured AUC(0-t) of C[C@@H]1O[C@@H](O[C@H]2[C@H](Oc3cc(O)c4c(c3)O[C@H](c3ccc(O)cc3)CC4=O)O[C@H](CO)[C@@H](O)[C@@H]2O)[C@H](O)[C@H](O)[C@H]1O , please.
Output: 37.5

====

- Test summary: Single-dose pharmacokinetics in dogs (plasma, UHPLC/MS/MS)
- Type: in vivo, Beagle dogs
- Run parameters: both sexes, Beagle, dog, plasma, po, 3.1 mg/kg; read-out: MRT0-t
Value kind: MRT last (h)
Answers are plain numbers, in h.

Task: Please report the recorded MRT last for C[C@@H]1O[C@@H](O[C@H]2[C@H](Oc3cc(O)c4c(c3)O[C@H](c3ccc(O)cc3)CC4=O)O[C@H](CO)[C@@H](O)[C@@H]2O)[C@H](O)[C@H](O)[C@H]1O .
Output: 2.5

====

- Test summary: Single ascending dose and food-effect pharmacokinetics of naringin tablets in healthy humans
- Format: in vivo, human
- Run parameters: both sexes, human, plasma, po, 40 mg, naringin 40 mg p.o. single dose
Value kind: Cmax (ng/mL)
One number for each entry, in ng/mL.

Task: Consider the compound C[C@@H]1O[C@@H](O[C@H]2[C@H](Oc3cc(O)c4c(c3)O[C@H](c3ccc(O)cc3)CC4=O)O[C@H](CO)[C@@H](O)[C@@H]2O)[C@H](O)[C@H](O)[C@H]1O and give its measured Cmax.
Output: 2.24
